# Tested on: MOLT-4 leukemia
# PROCEDURE_TEXT: NCI tumour cell line growth inhibition, 48 h
# reported TGI; entries follow
OBSERVATION_TYPE: TGI

| COMPOUND | OBSERVATION_TYPE | OBSERVED_RESULT |
| --- | --- | --- |
| CC(=O)O[C@H](C[C@H](C(C)C)N(C)C(=O)[C@@H](NC(=O)[C@H]1CCCCN1C)C(C)C)c1nc(C(=O)N[C@@H](Cc2ccccc2)C[C@H](C)C(=O)O)c(C(C)C)s1 | TGI | > 33.3 µM |
| O=C1c2ccccc2C(=O)c2c1ccc1nc3c(nc21)-c1c2ccccc2cc2cccc-3c12 | TGI | > 100 µM |
| CC(C)(C#N)c1cc(F)cc(C(=O)Nc2cc(Nc3ncccc3-c3ncnc4nc[nH]c34)ccc2F)c1 | TGI | > 10 µM |
| Cc1ccc([N+](=O)[O-])cc1NC(=O)C(=O)C(C(=O)c1ccccc1F)C1OC(=O)c2ccccc21 (configuration not stated) | TGI | > 100 µM |
| Fc1ccc(OCc2nc3cc(C(F)(F)F)ccc3nc2-c2ccccc2)cc1 | TGI | > 67.6 µM |
| Oc1ccc(O)c(-c2cc(-c3ccccc3)nn2-c2ccccc2)c1 | TGI | > 100 µM |
| O=C(c1ccco1)c1nc2cc(F)ccc2[n+]([O-])c1C(F)(F)F | TGI | 66.3 µM |
| O=c1oc2nc(-c3ccccc3)cc(C(F)(F)F)c2n1Cc1ccccc1 | TGI | > 100 µM |
| Cn1nnnc1N/N=C/c1ccccc1 | TGI | > 10 µM |
| Cn1cc(C2=C(c3cccnc3)C(=O)NC2=O)c2ccccc21 | TGI | > 25 µM |
| O=C(O)c1ccccc1CC1Cc2ccc3c(c2C1=O)CCC3 (configuration not stated) | TGI | > 100 µM |
| O=C(O)[C@@H]1CCC(=O)N1C(c1ccc2c(c1)OCO2)c1ccc2c(c1)OCO2 | TGI | > 100 µM |
| Cc1ccc(S(=O)(=O)/N=C(\N)N(C)N=O)cc1 | TGI | > 100 µM |
| COc1ccc(C2=NN(C(=O)c3cc(OC)c(OC)c(OC)c3)C(c3ccc(Cl)cc3)C2)cc1OC (configuration not stated) | TGI | > 100 µM |
| Cc1c(C(=O)C/C(=N/NC(=O)C[n+]2ccccc2)C(=O)Nc2ccccc2)[n+](=O)c2ccccc2n1O | TGI | > 100 µM |
| O=[N+]([O-])c1ccc2c(c1)Nc1c3ccccc3nc3cccc-2c13 | TGI | 34.6 µM |
| C=CC[P+](c1ccccc1)(c1ccccc1)c1ccccc1 | TGI | > 100 µM |
| COc1cc(C=C2N=C(c3ccccc3)N(n3c(-c4ccccc4)nc4ccccc4c3=O)C2=O)cc(OC)c1OC | TGI | > 100 µM |
| C=C1CC[C@@H](Br)C(C)(C)[C@]12CCC(C)(O)C(Cl)C2 (some centres not stated) | TGI | 38.3 µM |
| CCC(=O)N1NC(=O)C(CC)(CC)C1=O | TGI | > 100 µM |
| CC1CCC(O)(C(C)(C(=O)O)c2ccccc2)CC1 (configuration not stated) | TGI | > 100 µM |
| NCCCCN(CCCN)C(=O)c1ccccc1 | TGI | > 100 µM |
| Cc1ccc(C[P+]2(c3ccccc3)CCCCC2)cc1 | TGI | > 100 µM |
| CCOC(=O)/C=C/c1cc2cc(-c3csc4ccccc34)ccc2[nH]1 | TGI | 10.4 µM |
| CSC1=NC(C(N)=O)C(N)N1C (configuration not stated) | TGI | > 100 µM |
| CC[C@H](Nc1nc(N)nc(C)c1C#N)c1nc2cccc(NCc3ccc(C(=O)NO)cc3)c2c(=O)n1-c1ccccc1 | TGI | > 100 µM |
| CCC1(CCSC(=N)N)C(=O)NC(=O)NC1=O | TGI | > 100 µM |
| CCN1C(=O)NC(=O)C(C)(N2C(=O)c3c(F)c(F)c(F)c(F)c3C2=O)C1=O (configuration not stated) | TGI | 10.1 µM |
| CC1(C)CC(=O)C2=C(C1)S/C(=C1/SC3=C(S1)C(=O)CC(C)(C)C3)S2 | TGI | > 251 µM |
| COc1ccc(-c2nn(-c3cccc(NC(=O)c4ccc5c(c4)OCCO5)c3)cc2-c2ccncc2)cc1Cl | TGI | 25.7 µM |
| CCCCCC(=O)Nc1nc[nH]c1C(N)=O | TGI | > 100 µM |
| CCOC(=O)c1cc2c(nc1N)-c1ncccc1CC2 | TGI | > 100 µM |
| N#Cc1nc(COCc2ccccc2)oc1N | TGI | > 100 µM |
| N#C/C(=C\c1ccc(O)c(O)c1)C(=O)NC1CCC(CC2CCC(NC(=O)/C(C#N)=C/c3ccc(O)c(O)c3)CC2)CC1 (configuration not stated) | TGI | > 57.5 µM |
| CNC(=O)c1ccc2cc(C3(O)CCn4cncc43)ccc2c1 (configuration not stated) | TGI | > 100 µM |
| NC(=S)Nc1cc(Cl)ccc1Cl | TGI | > 100 µM |
| CCOC(=O)N(c1ccccc1)c1cc(=O)n2ccccc2n1 | TGI | > 100 µM |
| ClCCN1CCOC1=Nc1ccc2c(c1)CCCC2 | TGI | 39.9 µM |
| O=c1cccccc1NCCCCCCNc1cccccc1=O | TGI | > 100 µM |
| C=CCC(CC=O)(C(=O)OCC)C(=O)OCC | TGI | > 100 µM |
| CN1CCN(Cc2ccc(NC(=O)c3cncc(C#Cc4cncc5ncccc45)c3)cc2C(F)(F)F)CC1 | TGI | 16 µM |
| O=C(O)NCc1ccccc1 (tested in a mixture with another compound) | TGI | 45.9 µM |
